SYSTEM_TESTED: human Cereblon WT GST-tagged protein (Homo sapiens, UniProt Q96SW2)
Construct: purchased CISBIO 64BDCRBNPEH
Sequence (Q96SW2 whole entry): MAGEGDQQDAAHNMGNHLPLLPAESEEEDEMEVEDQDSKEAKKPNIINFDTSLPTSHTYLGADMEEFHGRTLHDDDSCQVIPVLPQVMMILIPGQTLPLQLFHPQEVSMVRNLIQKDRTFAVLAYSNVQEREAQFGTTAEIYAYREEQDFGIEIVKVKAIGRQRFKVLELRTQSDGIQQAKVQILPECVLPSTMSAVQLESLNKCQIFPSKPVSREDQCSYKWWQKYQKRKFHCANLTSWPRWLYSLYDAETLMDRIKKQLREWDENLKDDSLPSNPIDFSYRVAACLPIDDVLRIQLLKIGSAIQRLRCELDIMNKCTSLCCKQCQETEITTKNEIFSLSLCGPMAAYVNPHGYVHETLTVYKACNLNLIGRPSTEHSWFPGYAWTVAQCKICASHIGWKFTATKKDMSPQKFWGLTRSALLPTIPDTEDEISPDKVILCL
METHOD: CRBN-binding affinity by HTRF (CEREBLON BINDING kit)
MEASUREMENT_SETUP: HTRF inhibitory activity, CEREBLON BINDING kit; read-out: HTRF IC50
# IC50 annotations

MOLECULE: O=C1CCC(N2Cc3cc(CN4CCC(c5ccnc(Cl)c5Cl)CC4)ccc3C2=O)C(=O)N1 (stereo not shown)
IC50: 500 to 1000 nM
//
MOLECULE: Cc1csc2ncnc(N3CCN(Cc4ccc5c(c4)CN(C4CCC(=O)NC4=O)C5=O)CC3)c12 (stereo not shown)
IC50: 500 to 1000 nM
//
MOLECULE: O=C1CCC(N2Cc3cc(CN4CCN(c5c(F)c(F)nc(F)c5F)CC4)ccc3C2=O)C(=O)N1 (stereo not shown)
IC50: 500 to 1000 nM
//
MOLECULE: O=C1CCC(N2C(=O)c3ccc(CN4CCN(c5ncnc6scc(-c7ccccc7)c56)CC4)cc3C2=O)C(=O)N1 (stereo not shown)
IC50: 1000 to 1500 nM
//
MOLECULE: Cn1cc(C2=CCN(Cc3ccc4c(c3)C(=O)N(C3CCC(=O)NC3=O)C4=O)CC2)c2ccc(F)cc21 (stereo not shown)
IC50: 1000 to 1500 nM

Enquiry: Please report the measured IC50 for Cc1sc2ncnc(N3CCCN(Cc4ccc5c(c4)CN(C4CCC(=O)NC4=O)C5=O)CC3)c2c1C (stereo not shown)
Return: < 500 nM

Enquiry: Please report the measured IC50 for Cc1nc(C2=CCN(Cc3ccc4c(c3)CN(C3CCC(=O)NC3=O)C4=O)CC2)c2c(-c3ccccc3)csc2n1 (stereo not shown)
Return: < 500 nM

Enquiry: Please report the measured IC50 for Cn1cc(C2=CCN(Cc3ccc4c(c3)CN(C3CCC(=O)NC3=O)C4=O)CC2)c2ccc(F)cc21 (stereo not shown)
Return: < 500 nM

Enquiry: Please report the measured IC50 for Cc1ccc(N2CCN(Cc3ccc4c(c3)C(=O)N(C3CCC(=O)NC3=O)C4=O)CC2)s1 (stereo not shown)
Return: 1500 to 1900 nM

Enquiry: Please report the measured IC50 for O=C1CCC(N2Cc3cc(CN4CCN(c5ccc(F)c(F)c5)CC4)ccc3C2=O)C(=O)N1 (stereo not shown)
Return: 1500 to 1900 nM

Enquiry: Please report the measured IC50 for O=C1CCC(N2Cc3cc(CN4CCC(c5cccc(Br)c5)CC4)ccc3C2=O)C(=O)N1 (stereo not shown)
Return: 500 to 1000 nM

Enquiry: Please report the measured IC50 for O=C1CCC(N2Cc3cc(CN4CCN(c5ccncc5Br)CC4)ccc3C2=O)C(=O)N1 (stereo not shown)
Return: 500 to 1000 nM

Enquiry: Please report the measured IC50 for O=C1CCC(N2Cc3cc(CN4CCC(c5nccc(Cl)c5Cl)CC4)ccc3C2=O)C(=O)N1 (stereo not shown)
Return: 500 to 1000 nM

Enquiry: Please report the measured IC50 for O=C1CCC(N2Cc3cc(CN4CCN(c5nccc(I)c5F)CC4)ccc3C2=O)C(=O)N1 (stereo not shown)
Return: 500 to 1000 nM

Enquiry: Please report the measured IC50 for O=C1CCC(N2Cc3cc(CN4CCC(c5c[nH]c6ncccc56)CC4)ccc3C2=O)C(=O)N1 (stereo not shown)
Return: 500 to 1000 nM

Enquiry: Please report the measured IC50 for O=C1CCC(N2Cc3cc(CN4CCN(c5ncccc5F)CC4)ccc3C2=O)C(=O)N1 (stereo not shown)
Return: 1000 to 1500 nM
